read-out: Monokine induced gamma interferon (MIG), CXCL9 (gene 4283); test: BSK_SAg_MIG: BioMAP Diversity Plus: SAg Assay for Monokine induced gamma interferon (MIG) Biomarker Activity (AID 2283092); conditions: primary human HUVEC with PBMC; actives raise or lower the signal
Calls of active or inactive are those of the source. Rule for the calls: active = hit-call score of the fitted dose curve at least 0.9, where 1 is the maximum; inactive = score below 0.9.
Permitted responses: TRUE for active, FALSE for inactive

Answer briefly: the call reported for CC(C)C1(C)N=C(c2nc3ccccc3cc2C(=O)O)NC1=O (stereo not drawn) in this assay.
FALSE

Answer briefly: the call reported for "COc1nc(C)nc(NC(=O)NS(=O)(=O)c2ccccc2CCC(F)(F)F)n1" in this assay.
FALSE

Answer briefly: the call reported for "CN(C)C(=S)SSC(=S)N(C)C" in this assay.
TRUE

Answer briefly: the call reported for CC1COC(Cn2cncn2)(c2ccc(Oc3ccc(Cl)cc3)cc2Cl)O1 (stereo not drawn) in this assay.
TRUE

Answer briefly: the call reported for "CCOc1cc(Oc2ccc(C(F)(F)F)cc2Cl)ccc1[N+](=O)[O-]" in this assay.
FALSE

Answer briefly: the call reported for COC(=O)C(C)Oc1ccc(Oc2ccc(Cl)cc2Cl)cc1 (stereo not drawn) in this assay.
FALSE

Answer briefly: the call reported for "CS/C(C)=N/OC(=O)N(C)SN(C)C(=O)O/N=C(\C)SC" in this assay.
TRUE

Answer briefly: the call reported for "COP(=S)(OC)Oc1nc(Cl)c(Cl)cc1Cl" in this assay.
FALSE

Answer briefly: the call reported for "CCc1nn(C)c(C(=O)NCc2ccc(C(C)(C)C)cc2)c1Cl" in this assay.
TRUE

Answer briefly: the call reported for "O=C(Nc1ccccc1)Nc1ccnc(Cl)c1" in this assay.
FALSE

Answer briefly: the call reported for "CCCN(CCC)c1c([N+](=O)[O-])cc(S(N)(=O)=O)cc1[N+](=O)[O-]" in this assay.
TRUE

Answer briefly: the call reported for "CCOP(=S)(OCC)SCn1c(=O)oc2cc(Cl)ccc21" in this assay.
FALSE

Answer briefly: the call reported for "COc1nc(NC(C)C)nc(NC(C)C)n1" in this assay.
FALSE

----------
read-out: Interleukin-1 alpha (IL1a), IL1A (gene 3552); assay: BSK_LPS_IL1a: BioMAP Diversity Plus: LPS Assay for Interleukin-1 alpha (IL1a) Biomarker Activity (AID 2283080); conditions: primary human HUVEC with PBMC; actives raise or lower the signal
Activity calls are given as the source filed them. How the source made its calls: active means hit-call score of the fitted dose curve at least 0.9, where 1 is the maximum; inactive means score below 0.9.
Permitted responses: TRUE for active, FALSE for inactive

Answer briefly: the call reported for CCOC(=O)C(Cl)Cc1cc(-n2nc(C)n(C(F)F)c2=O)c(F)cc1Cl (stereo not drawn) in this assay.
FALSE

Answer briefly: the call reported for "C=CCC1=C(C)[C@@H](OC(=O)[C@@H]2[C@@H](C=C(C)C)C2(C)C)CC1=O" in this assay.
TRUE

Answer briefly: the call reported for N#Cc1nn(-c2c(Cl)cc(C(F)(F)F)cc2Cl)c(N)c1S(=O)C(F)(F)F (stereo not drawn) in this assay.
TRUE

----------
test: CCTE_Shafer_MEA_acute_firing_rate_mean: CCTE's Neural Acute Assay for Mean Firing Rate, Shafer Lab (AID 2284009);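 note: analyzed for loss of signal so actives lower firing rate relative to DMSO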
The source made the active and inactive calls. How the source made its calls: active means hit-call score of the fitted dose curve at least 0.9, where 1 is the maximum; inactive means score below 0.9.
Permitted responses: True (active), False (inactive)

Answer briefly: the call reported for "CC(C)Oc1cc(-n2nc(C(C)(C)C)oc2=O)c(Cl)cc1Cl" in this assay.
False

Answer briefly: the call reported for "CCCCNC(=O)OCC#CI" in this assay.
True

Answer briefly: the call reported for "Fc1ccc(Oc2ccnc3cc(Cl)cc(Cl)c23)cc1" in this assay.
False

Answer briefly: the call reported for "CO/C=C(/C(=O)OC)c1ccccc1Oc1cc(Oc2ccccc2C#N)ncn1" in this assay.
False

Answer briefly: the call reported for "O=C(O)c1nc(Cl)ccc1Cl" in this assay.
False

Answer briefly: the call reported for "CCOP(=S)(OCC)SCn1c(=O)oc2cc(Cl)ccc21" in this assay.
False

Answer briefly: the call reported for CC(Oc1ccc(Cl)cc1Cl)C(=O)O (centres undefined) in this assay.
False

Answer briefly: the call reported for Cc1c(F)c(F)c(COC(=O)C2C(/C=C(\Cl)C(F)(F)F)C2(C)C)c(F)c1F (centres undefined) in this assay.
True

Answer briefly: the call reported for "COP(=S)(OC)Oc1nc(Cl)c(Cl)cc1Cl" in this assay.
False

Answer briefly: the call reported for COC(=O)C(C)Oc1ccc(Oc2ccc(Cl)cc2Cl)cc1 (centres undefined) in this assay.
False

Answer briefly: the call reported for CCCC1COC(Cn2cncn2)(c2ccc(Cl)cc2Cl)O1 (centres undefined) in this assay.
False

Answer briefly: the call reported for CC1COC(Cn2cncn2)(c2ccc(Oc3ccc(Cl)cc3)cc2Cl)O1 (centres undefined) in this assay.
True

Answer briefly: the call reported for COP(N)(=O)SC (centres undefined) in this assay.
False

Answer briefly: the call reported for "CCCN(CCC)c1c([N+](=O)[O-])cc(S(N)(=O)=O)cc1[N+](=O)[O-]" in this assay.
True

----------
target: Bile acid receptor (Homo sapiens); assay: OT_FXR_FXRSRC1_1440: Odyssey Thera (OT) 24-hour HEK293T Protein-Complementation Assay for Farnesoid X receptor/SRC-1 Co-activator (AID 2283384)
Inconclusive results are not listed. Active and inactive are the calls of the source. Rule for the calls: active = hit-call score of the fitted dose curve at least 0.9, where 1 is the maximum; inconclusive = response in the unintended direction; inactive = score below 0.9.
Permitted responses: Yes (active), No (inactive)

Answer briefly: the call reported for CC(C)C1(C)N=C(c2nc3ccccc3cc2C(=O)O)NC1=O (stereo not given) in this assay.
No

Answer briefly: the call reported for "CS/C(C)=N/OC(=O)N(C)SN(C)C(=O)O/N=C(\C)SC" in this assay.
No

Answer briefly: the call reported for "CCOc1cc(Oc2ccc(C(F)(F)F)cc2Cl)ccc1[N+](=O)[O-]" in this assay.
No

Answer briefly: the call reported for C=CCC1=C(C)C(OC(=O)C2C(C=C(C)C)C2(C)C)CC1=O (stereo not given) in this assay.
Yes

Answer briefly: the call reported for COC(=O)C(C)Oc1ccc(Oc2ccc(Cl)cc2Cl)cc1 (stereo not given) in this assay.
No

Answer briefly: the call reported for "CNC(=O)ON=CC(C)(C)SC" in this assay.
No

Answer briefly: the call reported for "COC(=O)c1ccccc1C(=O)OC" in this assay.
No

Answer briefly: the call reported for CCOC(=O)C(Cl)Cc1cc(-n2nc(C)n(C(F)F)c2=O)c(F)cc1Cl (stereo not given) in this assay.
No

Answer briefly: the call reported for CCON=C(CC)C1=C(O)CC(c2c(C)cc(C)cc2C)CC1=O (stereo not given) in this assay.
No

Answer briefly: the call reported for "COC(=O)N(OC)c1ccccc1COc1ccn(-c2ccc(Cl)cc2)n1" in this assay.
Yes

----------
target: Androgen Receptor/SRC-1 Co-activator, AR (gene 367); experiment: OT_AR_ARSRC1_0960: Odyssey Thera (OT) 16-hour HEK293T Protein-Complementation Assay for Androgen Receptor/SRC-1 Co-activator (AID 2283353);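 note: actives raise the signal above DMSO so potency reflects increased AR and SRC-1 complex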
The source made the active and inactive calls. How the source made its calls: active means hit-call score of the fitted dose curve at least 0.9, where 1 is the maximum; inconclusive means response in the unintended direction; inactive means score below 0.9.
Permitted responses: 1 (active), 0 (inactive)

Answer briefly: the call reported for CCON=C(CC)C1=C(O)CC(c2c(C)cc(C)cc2C)CC1=O (centres undefined) in this assay.
0

Answer briefly: the call reported for CCOC(=O)CC(SP(=S)(OC)OC)C(=O)OCC (centres undefined) in this assay.
0

Answer briefly: the call reported for "Cc1cc(Cl)ccc1OCC(=O)O" in this assay.
0

Answer briefly: the call reported for "Cc1ccc(-c2c(Cl)nc(C#N)n2S(=O)(=O)N(C)C)cc1" in this assay.
1

----------
experiment: Tanguay_ZF_120hpf_BRAI_legacy: (Legacy) Oregon State University Tanguay Lab 120 Hour Post-fertilization zebrafish Assay for Brain Malformation (AID 2283641)
Results filed as inconclusive are left out. Active and inactive are the calls of the source. The calls were made as follows: active = hit-call score of the fitted dose curve at least 0.9, where 1 is the maximum; inconclusive = response in the unintended direction; inactive = score below 0.9.
Permitted responses: active, inactive

Answer briefly: the call reported for "COC(=O)C=C(C)OP(=O)(OC)OC" in this assay.
inactive

Answer briefly: the call reported for "O=C(O)COc1nc(Cl)c(Cl)cc1Cl" in this assay.
inactive

Answer briefly: the call reported for "O=C(Nc1ccccc1)Nc1ccnc(Cl)c1" in this assay.
inactive

Answer briefly: the call reported for Cc1c(F)c(F)c(COC(=O)C2C(/C=C(\Cl)C(F)(F)F)C2(C)C)c(F)c1F (stereo not given) in this assay.
active

Answer briefly: the call reported for "CCCCNC(=O)OCC#CI" in this assay.
inactive

----------
system: DIO2 (gene 1734); assay: CCTE_GLTED_hDIO2: CCTE's human Deiodinase 2 (DIO2) Inhibition Assay, Great Lakes Toxicology and Ecology Division (GLTED) Lab (AID 2284050)
Calls of active or inactive are those of the source. How the source made its calls: active means hit-call score of the fitted dose curve at least 0.9, where 1 is the maximum; inconclusive means response in the unintended direction; inactive means score below 0.9.
Permitted responses: active, inactive

Answer briefly: the call reported for "Oc1ccccc1-c1ccccc1" in this assay.
active

Answer briefly: the call reported for "CCNc1nc(Cl)nc(NC(C)C)n1" in this assay.
inactive

Answer briefly: the call reported for "Cc1ccc(-c2c(Cl)nc(C#N)n2S(=O)(=O)N(C)C)cc1" in this assay.
active

Answer briefly: the call reported for "CN(C)C(=S)SSC(=S)N(C)C" in this assay.
active
